Hey, just so you know, these numbers are from patent US10351522B2.

Target: human OX2R (Homo sapiens, UniProt O43614)
Construct: expressed in transfected cells; host or cells: CHO (Chinese hamster ovary) cells, line CHOOX2R, co-expressing NFAT-luciferase
Sequence (O43614 1-444): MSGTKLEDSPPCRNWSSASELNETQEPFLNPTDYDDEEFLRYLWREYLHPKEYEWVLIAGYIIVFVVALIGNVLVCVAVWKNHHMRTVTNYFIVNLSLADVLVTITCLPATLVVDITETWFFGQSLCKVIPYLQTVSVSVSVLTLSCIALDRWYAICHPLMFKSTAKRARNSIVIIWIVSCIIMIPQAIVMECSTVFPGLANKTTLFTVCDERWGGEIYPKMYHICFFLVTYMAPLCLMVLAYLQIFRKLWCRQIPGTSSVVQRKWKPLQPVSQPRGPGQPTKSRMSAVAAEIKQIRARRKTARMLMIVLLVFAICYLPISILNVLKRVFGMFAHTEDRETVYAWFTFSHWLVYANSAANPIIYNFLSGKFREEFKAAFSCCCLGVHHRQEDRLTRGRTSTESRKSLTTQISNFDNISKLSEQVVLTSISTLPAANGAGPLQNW
Experiment: Agonist activity against OX2R: intracellular calcium (Fura-2AM, FDSS7000) in CHOOX2R cells
Format: cell-based
Conditions: 10 μM test compound; relative to orexin-A as full agonist (100%)
value kind: Response (%) OX2R

COc1ccc(-c2cccc(C(=O)N(C)C)c2)cc1S(=O)(=O)Nc1cccc(NCc2ccccc2)c1 [Example 20] :: 78
COc1ccc(Nc2cccc(NS(=O)(=O)c3cc(-c4cccc(C(=O)N(C)C)c4)ccc3OC)c2)cc1 [Example 29] :: 81
COc1ccc(-c2cccc(C(=O)N(C)C)c2)cc1S(=O)(=O)Nc1cccc(NC(=O)c2ccc(N(C)C)cc2)c1 [Example 8] :: 61
COc1ccc(-c2cccc(C(=O)N(C)C)c2)cc1S(=O)(=O)Nc1cccc(NC(=O)Nc2ccc(NC(=O)OC(C)(C)C)cc2)c1 [Example 72] :: 79
COc1ccc(-c2cccc(C(=O)N(C)C)c2)cc1S(=O)(=O)Nc1cccc(NC(=O)c2ccccc2C)c1 [Example 16] :: 82

* * *

target: human OX2R (Homo sapiens, UniProt O43614); construct: expressed in transfected cells; host or cells: CHO (Chinese hamster ovary) cells, line CHOOX2R, co-expressing NFAT-luciferase; test: Agonist activity against OX2R: intracellular calcium (Fura-2AM, FDSS7000) in CHOOX2R cells; format: cell-based; conditions: test compound 0.1 μM; relative to orexin-A as full agonist (100%)
value kind: Response (%) OX2R

Field: example entries. Status: answers known.
COc1ccc(C(=O)NCCNC(=O)OC(C)(C)C)cc1S(=O)(=O)Nc1cccc(NC(=O)Nc2cccc(N(C)C)c2)c1 :: 9
COc1ccc(-c2cccc(C(=O)N(C)C)c2)cc1S(=O)(=O)Nc1cccc(NC(=O)N(C)c2cccc(N(C)C)c2)c1 :: 106
COc1ccc(C(=O)NCC(C)(C)CN(C)C)cc1S(=O)(=O)Nc1cccc(NC(=O)Nc2cccc(N(C)C)c2)c1 :: 7
COc1ccc(-c2cccc(C(=O)N(C)C)c2)cc1S(=O)(=O)Nc1cccc(Nc2c(Nc3ccc(C)cc3)c(=O)c2=O)c1 :: 6
COc1ccc(C(=O)NCc2cccnc2)cc1S(=O)(=O)Nc1cccc(NC(=O)Nc2ccc(N(C)C)cc2)c1 :: 7

(I) COc1ccc(-c2cccc(C(=O)N(C)C)c2)cc1S(=O)(=O)Nc1ccc(NC(=O)Nc2cccc(N(C)C)c2)cc1
(II) CCCOc1ccc(-c2cccc(C(=O)N(C)C)c2)cc1S(=O)(=O)Nc1cccc(NC(=O)Nc2cccc(N(C)C)c2)c1
Input line: # return whichever of I and II has the smaller Response (%) OX2R Write the label of whichever entry you select.
Output line: I

* * *

Biological target: human OX1R (Homo sapiens)
Construct: expressed in transfected cells; host or cells: CHO (Chinese hamster ovary) cells, line CHOOX1R, co-expressing NFAT-luciferase
Sequence (O43613 1-425): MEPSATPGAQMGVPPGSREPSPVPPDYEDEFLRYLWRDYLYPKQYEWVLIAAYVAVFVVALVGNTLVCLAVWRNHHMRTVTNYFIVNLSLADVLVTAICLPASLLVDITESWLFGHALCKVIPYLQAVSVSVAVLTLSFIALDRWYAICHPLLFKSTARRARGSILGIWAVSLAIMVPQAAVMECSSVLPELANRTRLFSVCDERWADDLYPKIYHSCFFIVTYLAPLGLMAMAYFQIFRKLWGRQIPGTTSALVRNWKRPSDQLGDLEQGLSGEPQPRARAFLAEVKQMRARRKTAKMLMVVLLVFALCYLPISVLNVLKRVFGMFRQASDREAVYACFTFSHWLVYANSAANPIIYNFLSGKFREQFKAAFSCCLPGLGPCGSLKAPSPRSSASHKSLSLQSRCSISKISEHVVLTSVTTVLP
Assay: Agonist activity against OX1R: intracellular calcium (Fura-2AM, FDSS7000) in CHOOX1R cells
Assay type: cell-based
Details: 10 μM test compound; relative to orexin-A as full agonist (100%)
Method: Evaluation of Agonist Activity Against OX1R and OX2R […] (As used herein, Response in Table 21 to Table 27 is a value obtained by dividing the agonist activity value, when the test compound is evaluated with orexin-A as a full-agonist (maximum value of agonist activity: 100%), at 10 μM, 1.0 μM, 0.1 μM by the agonist activity value of orexin-A.)
value kind: Response (%) OX1R

Sample answers from the record:
COC(=O)c1cccc(NC(=O)Nc2cccc(NS(=O)(=O)c3cc(-c4cccc(C(=O)N(C)C)c4)ccc3OC)c2)c1 [Example 45] :: <5%
COc1ccc(-c2cccc(C(=O)N(C)C)c2)cc1S(=O)(=O)Nc1cccc(NC(=O)Nc2ccc(NC(=N)N)cc2)c1 [Example 60] :: <5%

get_value(item= COc1ccc(-c2cccc(C(=O)N(C)C)c2)cc1S(=O)(=O)Nc1cccc(NC(=O)Nc2cccc(C(=O)O)c2)c1 [Example 48] , readout=Response (%) OX1R) returns <5%

* * *

Molecular target: human OX2R (Homo sapiens)
Construct: expressed in transfected cells; host or cells: CHO (Chinese hamster ovary) cells, line CHOOX2R, co-expressing NFAT-luciferase
Sequence (O43614 1-444): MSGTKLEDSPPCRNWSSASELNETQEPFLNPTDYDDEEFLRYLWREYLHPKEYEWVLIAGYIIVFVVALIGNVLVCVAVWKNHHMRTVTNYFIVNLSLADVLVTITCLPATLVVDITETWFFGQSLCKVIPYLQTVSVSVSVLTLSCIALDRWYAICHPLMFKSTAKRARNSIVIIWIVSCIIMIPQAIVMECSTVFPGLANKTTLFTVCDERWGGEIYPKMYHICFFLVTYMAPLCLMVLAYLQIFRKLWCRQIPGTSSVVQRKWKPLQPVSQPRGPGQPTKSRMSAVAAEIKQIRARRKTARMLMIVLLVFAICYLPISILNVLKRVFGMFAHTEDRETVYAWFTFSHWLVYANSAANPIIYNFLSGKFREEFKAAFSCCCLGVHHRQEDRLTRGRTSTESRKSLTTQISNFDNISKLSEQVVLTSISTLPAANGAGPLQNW
Test: Agonist activity against OX2R: intracellular calcium (Fura-2AM, FDSS7000) in CHOOX2R cells
Type: cell-based
Details: test compound 0.1 μM; relative to orexin-A as full agonist (100%)
value kind: Response (%) OX2R

COc1ccc(-c2cccc(C(=O)N(C)C)c2)cc1S(=O)(=O)Nc1cccc(N2CCCCN(c3cccc(N(C)C)c3)C2=O)c1 :: 144
COc1ccc(-c2cccc(C(=O)N(C)C)c2)cc1S(=O)(=O)Nc1cccc(N)c1 :: 19

(A) COc1ccc(-c2cccc(C(=O)N(C)C)c2)cc1S(=O)(=O)Nc1cccc(/N=N/c2ccc(N(C)C)cc2CO)c1
(B) COc1ccc(-c2cccc(C(=O)N(C)C)c2)cc1S(=O)(=O)Nc1cccc(N2CCCN(c3ccccc3N(C)C)C2=O)c1
(C) COc1ccc(-c2cccc(C(=O)N(C)C)c2)cc1S(=O)(=O)Nc1ccccc1NC(=O)Nc1cccc(N(C)C)c1
Input line: Arrange the 3 compounds from largest to smallest Response (%) OX2R. Returns: the labels listed in the requested order.
Output line: B, A, C

* * *

molecular target: human OX1R (Homo sapiens, UniProt O43613); construct: expressed in transfected cells; host or cells: CHO (Chinese hamster ovary) cells, line CHOOX1R, co-expressing NFAT-luciferase; assay: Agonist activity against OX1R: intracellular calcium (Fura-2AM, FDSS7000) in CHOOX1R cells; type: cell-based; conditions: test compound 1.0 μM; relative to orexin-A as full agonist (100%)
value kind: Response (%) OX1R

COc1ccc(-c2cccc(C(=O)N(C)C)c2)cc1S(=O)(=O)Nc1cccc(N2CCN(c3ccc(N(C)C)cc3)C2=O)c1 :: <5%

Next item in the queue.
For this molecule ( CCCOc1ccc(-c2cccc(C(=O)N(C)C)c2)cc1S(=O)(=O)Nc1cccc(NC(=O)Nc2cccc(N(C)C)c2)c1 ), measured Response (%) OX1R is <5%
